Exercise: state measured EC50 for each of the compounds provided.
system: TNFα production in LPS-stimulated human monocytes; assay: Cot Monocyte TNFα Cell Based Assay; details: Homo sapiens, Monocyte, LPS-stimulated human monocytes, TNFα TR-FRET; read-out: EC50 TNF

Query :: Which measured EC50 value corresponds to Cc1c([C@H](Nc2cc(C#N)c3ncc(C#N)c(NCC(C)(C)C)c3c2)c2cn(C3(C(F)(F)F)CC3)nn2)cccc1-n1cncn1 [Example 1043] ?
Result :: 110 nM

Query :: Next up: Cc1c([C@H](Nc2cc(Cl)c3ncc(C#N)c(NCC(C)(C)C)c3c2)c2cn(C3(C(F)(F)F)CC3)nn2)cccc1-n1ccnn1 [Example 1063]
Result :: 73 nM

Query :: Next up: Cc1c(-c2cn(C)cn2)cccc1[C@H](Nc1cc(C#N)c2ncc(C#N)c(NCC(C)(C)C)c2c1)c1cn(C2(C(F)(F)F)CC2)nn1 [Example 1145]
Result :: 99 nM
